Taken from PubChem BioAssay (NCI).

System: EKVX NSCLC
Experiment description: NCI-60 one-dose screen, 48 h
Condition details: 10 µM unless noted
Compounds without any hit were thinned out: in the full panel of roughly 83,000, 20% have a hit. Activity calls are given as the source filed them. The calls were made as follows: active = growth percent below 10; inactive = the rest.
Select the matching outcome among active, inactive

Some solved cases for reference:
* Cc1nc(Cl)c2c(n1)N(C)c1ccc(Cl)cc1C(C)C2 (configuration not stated) | inactive
* NC(=O)c1c(NC(=O)COC(=O)Cc2ccccc2F)sc2c1CCC2 | inactive
* O=C(NNc1ccc(-c2ccccc2)nn1)c1ccccc1 | inactive
* O=[N+]([O-])c1cc(CCl)ccc1OCCBr | inactive
* Nn1c(Nc2ccc(S(=O)(=O)Nc3ncccn3)cc2)nnc(/C=C/c2c(O)ccc3ccccc23)c1=O | inactive

What outcome does the record of this test show for Cc1cc2c(C(C)C)c(O)c(O)c(C=NCc3ccoc3)c2c(O)c1-c1c(C)cc2c(C(C)C)c(O)c(O)c(C=NCc3ccco3)c2c1O ?
inactive

What outcome does the record of this test show for O=C(NCCO)c1cccnc1 ?
inactive

What outcome does the record of this test show for C=C(C)[C@@H]1CC[C@]2(C(=O)NCCCN)CC[C@]3(C)[C@H](CC[C@@H]4[C@@]5(C)CC[C@H](O)C(C)(C)[C@@H]5CC[C@]43C)[C@@H]12 ?
active

What outcome does the record of this test show for C=CCCCCOc1ccccc1-c1cnc(OCCCCC=C)n1C ?
inactive

What outcome does the record of this test show for Nc1nc(SCc2cccc([N+](=O)[O-])c2)c2[nH]cnc2n1 ?
inactive

What outcome does the record of this test show for CCCn1ccnc1C(O)c1ccc(OCc2ccccc2)c(OC)c1 (configuration not stated) ?
inactive

What outcome does the record of this test show for O=[N+]([O-])c1cccc(/C=C/c2ccc3ccccc3n2)c1 ?
inactive

What outcome does the record of this test show for CCCCCCCCCCCCNC(=S)N/N=C/c1ccccc1O ?
inactive

What outcome does the record of this test show for CCCC(NC(=O)OCc1ccccc1)C(=O)O (configuration not stated) ?
inactive

What outcome does the record of this test show for COc1ccc2nc3ccccc3c(NCCNCCO)c2c1 ?
active

What outcome does the record of this test show for CC1(C)CC[C@]2(C(N)=O)CC[C@]3(C)C(=CC[C@@H]4[C@@]5(C)C/C(=C/c6ccncc6)C(=O)C(C)(C)[C@@H]5CC[C@]43C)[C@@H]2C1 ?
active

What outcome does the record of this test show for COc1ccc(C2CC(c3ccc4ccccc4c3)=NN2c2nc(O)c(C3=c4cc(OC)ccc4=NC3=O)s2)cc1 (configuration not stated) ?
active
